// data source = the supplement of paper PMC12350171

Test system: Shigella flexneri
Assay: growth AUC normalised to DMSO control (fraction of control); higher = less growth inhibition, active = hit call of the paper
Conditions: 20 µM
Where a name gives a salt, the structure may show the parent alone.
Answer with one of the outcomes True for active, False for inactive

[
  {
    "COMPOUND": "CN1CCCCC1CCN1c2ccccc2Sc2ccc([S+](C)[O-])cc21 (stereo not drawn) [Mesoridazine besylate]",
    "EXPERIMENTAL_TARGET": "Shigella flexneri",
    "LABEL_CLASS": "False"
  },
  {
    "COMPOUND": "OCCOCCN1CCN(C(c2ccccc2)c2ccc(Cl)cc2)CC1 (stereo not drawn) [Hydroxyzine dihydrochloride]",
    "EXPERIMENTAL_TARGET": "Shigella flexneri",
    "LABEL_CLASS": "True"
  },
  {
    "COMPOUND": "O=C(NCC(O)CO)c1c(I)c(C(=O)NCC(O)CO)c(I)c(N(CCO)C(=O)CO)c1I (stereo not drawn)",
    "EXPERIMENTAL_TARGET": "Shigella flexneri",
    "LABEL_CLASS": "False"
  },
  {
    "COMPOUND": "CCC(C)(CN(C)C)OC(=O)c1ccccc1 (stereo not drawn) [Amyleine hydrochloride]",
    "EXPERIMENTAL_TARGET": "Shigella flexneri",
    "LABEL_CLASS": "False"
  },
  {
    "COMPOUND": "CC(=O)[C@H]1CC[C@H]2[C@@H]3C[C@H](C)C4=CC(=O)CC[C@]4(C)[C@H]3[C@@H](O)C[C@]12C",
    "EXPERIMENTAL_TARGET": "Shigella flexneri",
    "LABEL_CLASS": "False"
  },
  {
    "COMPOUND": "CN1C(C(=O)Nc2ccccn2)=C(O)c2ccccc2S1(=O)=O",
    "EXPERIMENTAL_TARGET": "Shigella flexneri",
    "LABEL_CLASS": "False"
  },
  {
    "COMPOUND": "CC(CCc1ccccc1)NCC(O)c1ccc(O)c(C(N)=O)c1 (stereo not drawn) [Labetalol hydrochloride]",
    "EXPERIMENTAL_TARGET": "Shigella flexneri",
    "LABEL_CLASS": "False"
  }
]

# ---- query compound ----
Which outcome was assigned to Cc1cc(-c2ccccc2)nnc1NCCN1CCOCC1 [Minaprine dihydrochloride] in this test?
False

---

Tested on: S. enterica typhimurium tolC KO;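 also: active when median AUC fell below 0.1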
Experiment: growth AUC normalised to DMSO control (median) (fraction of control); higher = less growth inhibition, active = hit call of the paper
Settings: 20 µM
Where a name gives a salt, the structure may show the parent alone.
Answer with one of the outcomes active, inactive

[
  {
    "COMPOUND": "CC(C)(C)NCC(O)COc1cccc2c1CC(O)C(O)C2 (centres undefined) [Nadolol]",
    "LABEL_CLASS": "inactive"
  },
  {
    "COMPOUND": "Nc1nc2[nH]cc(CCc3ccc(C(=O)N[C@@H](CCC(=O)O)C(=O)O)cc3)c2c(=O)[nH]1 [Pemetrexed disodium]",
    "LABEL_CLASS": "inactive"
  },
  {
    "COMPOUND": "CCOC(=O)CC(=O)N1CCSC1COc1ccccc1OC (centres undefined) [Moguisteine]",
    "LABEL_CLASS": "inactive"
  },
  {
    "COMPOUND": "CN(C)CCC(c1ccccc1)c1ccccn1 (centres undefined) [Pheniramine maleate]",
    "LABEL_CLASS": "inactive"
  },
  {
    "COMPOUND": "Oc1ccc(C2CNCCc3c2cc(O)c(O)c3Cl)cc1 (centres undefined) [Fenoldopam]",
    "LABEL_CLASS": "inactive"
  }
]

Which outcome was assigned to CCCCC1C(=O)N(c2ccccc2)N(c2ccccc2)C1=O [Phenylbutazone] in this test?
inactive

Which outcome was assigned to Cc1onc(-c2ccccc2Cl)c1C(=O)N[C@@H]1C(=O)N2[C@@H]1SC(C)(C)[C@@H]2C(=O)O [Cloxacillin sodium salt] in this test?
active

Which outcome was assigned to CCCCOc1ccc(OCCCN2CCOCC2)cc1 [Pramoxine hydrochloride] in this test?
inactive

Which outcome was assigned to CC(=O)O[C@]1(C(C)=O)CC[C@H]2[C@@H]3C=C(Cl)C4=CC(=O)[C@@H]5C[C@@H]5[C@]4(C)[C@H]3CC[C@@]21C [Cyproterone acetate] in this test?
inactive

---

Test system: Salmonella enterica typhimurium
Experiment: growth AUC normalised to DMSO control (fraction of control); higher = less growth inhibition, active = hit call of the paper
Details: 20 µM
Where a name gives a salt, the structure may show the parent alone.
Answer with one of the outcomes active, inactive

Example entries and their recorded answers appear below.
[
  {
    "MOLECULE": "C[C@H](CCC(=O)O)[C@H]1CC[C@H]2[C@@H]3C(=O)C[C@@H]4CC(=O)CC[C@]4(C)[C@H]3CC(=O)[C@]12C [Dehydrocholic acid]",
    "LABEL_CLASS": "inactive"
  },
  {
    "MOLECULE": "O=C(O)CCC(=O)Nc1ccc(S(=O)(=O)Nc2nccs2)cc1",
    "LABEL_CLASS": "inactive"
  },
  {
    "MOLECULE": "CCN(CC)CCOC(=O)C(c1ccccc1)C1CCCCC1 (stereo not drawn) [Drofenine hydrochloride]",
    "LABEL_CLASS": "inactive"
  },
  {
    "MOLECULE": "CC[C@H](C)C(=O)O[C@H]1CCC=C2C=C[C@H](C)[C@H](CC[C@@H]3C[C@@H](O)CC(=O)O3)[C@H]21",
    "LABEL_CLASS": "inactive"
  },
  {
    "MOLECULE": "CC(C(=O)O)c1ccc2c(c1)Cc1cccnc1O2 (stereo not drawn)",
    "LABEL_CLASS": "inactive"
  }
]

Which outcome was assigned to C=CC1=C(C(=O)O)N2C(=O)[C@@H](NC(=O)/C(=N\O)c3csc(N)n3)[C@H]2SC1 in this test?
active

Which outcome was assigned to CCCCC(O)c1ccccc1 (stereo not drawn) in this test?
inactive

Which outcome was assigned to Cc1cccc(C)c1NC(=O)C(C)N (stereo not drawn) [Tocainide hydrochloride] in this test?
inactive

---

Test system: S. enterica typhimurium tolC KO;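 also: active when median AUC fell below 0.1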
Assay: growth AUC normalised to DMSO control (median) (fraction of control); higher = less growth inhibition, active = hit call of the paper
Settings: 20 µM
Where a name gives a salt, the structure may show the parent alone.
EXPERIMENTAL_READOUT: growth AUC normalised to DMSO control
Write the number on its own, no unit after it.

A selection of reference data follows.
[
  {
    "COMPOUND": "CC(C)NCC(O)COc1ccc(COCCOC(C)C)cc1 (centres undefined) [Bisoprolol hemifumarate]",
    "EXPERIMENTAL_TARGET": "S. enterica typhimurium tolC KO",
    "growth AUC normalised to DMSO control": 1.01
  },
  {
    "COMPOUND": "O=C(O)c1ccccc1Nc1cc(Cl)ccc1C(=O)O [Lobenzarit disodium]",
    "EXPERIMENTAL_TARGET": "S. enterica typhimurium tolC KO",
    "growth AUC normalised to DMSO control": 0.959
  },
  {
    "COMPOUND": "CCOC(=O)c1ccc(OC(=O)CCCCCNC(=N)N)cc1 [Gabexate mesilate]",
    "EXPERIMENTAL_TARGET": "S. enterica typhimurium tolC KO",
    "growth AUC normalised to DMSO control": 0.325
  }
]

Looking up CCCNCC(O)COc1ccccc1C(=O)CCc1ccccc1 (centres undefined) [Propafenone hydrochloride] , I see its growth AUC normalised to DMSO control listed as 0.948

Looking up CN(C)c1ccc2nc3ccc(=[N+](C)C)cc-3sc2c1 , I see its growth AUC normalised to DMSO control listed as 0.862

Looking up N#Cc1cc(NC(=O)C(=O)O)c(Cl)c(NC(=O)C(=O)O)c1 [Lodoxamide] , I see its growth AUC normalised to DMSO control listed as 1.01

Looking up CC(=O)OCC(=O)[C@@]1(O)CC[C@H]2[C@@H]3CCC4=CC(=O)CC[C@]4(C)[C@@]3(F)[C@@H](O)C[C@@]21C [Fludrocortisone acetate] , I see its growth AUC normalised to DMSO control listed as 0.981

Looking up COC(=O)C1=C(C)NC(C)=C(C(=O)OCC(C)C)C1c1ccccc1[N+](=O)[O-] (centres undefined) , I see its growth AUC normalised to DMSO control listed as 0.95

Looking up Cc1ncc([N+](=O)[O-])n1CC(C)O (centres undefined) , I see its growth AUC normalised to DMSO control listed as 1

---

Tested on: Salmonella enterica typhimurium
Assay: growth AUC normalised to DMSO control (fraction of control); higher = less growth inhibition, active = hit call of the paper
Details: 20 µM
Where a name gives a salt, the structure may show the parent alone.
Classification field: enter Y for growth AUC normalised to DMSO control values not below 1, N for values below it.

[
  {
    "COMPOUND": "CCCCN(CCCC)CCC(O)c1cc2c(Cl)cc(Cl)cc2c2cc(C(F)(F)F)ccc12 (configuration not stated) [Halofantrine hydrochloride]",
    "LABEL_CLASS": "N"
  }
]

# ---- query compound ----
Hi, just wondering whether C=C1c2c(Cl)ccc(O)c2C(O)=C2C(=O)[C@]3(O)C(O)=C(C(N)=O)C(=O)[C@@H](N(C)C)[C@@H]3[C@@H](O)[C@H]12.O=C(O)c1cc(S(=O)(=O)O)ccc1O [Meclocycline sulfosalicylate] shows growth AUC normalised to DMSO control of 1 or higher.
N
